- assay.notes: Solubility at different pH values (37° C.)
- Format: physicochemical
- recorded.conditions: aqueous buffer; pH = 3, 37° C.; read-out: Solubility (average, mg/ml)
Structures can show the parent of a compound that is named as a salt.
attribute.measured: solubility (mg/mL)
All answers are understood in mg/mL, so give the number only.

[
  {
    "compound": "CN(C)C(=O)N[C@H]1CC[C@H](CCN2CCN(c3cccc(Cl)c3Cl)CC2)CC1 [Cariprazine base]",
    "solubility, mg/mL": 0.204
  }
]

I would be grateful if you could share the reported solubility for CN(C)C(=O)N[C@H]1CC[C@H](CCN2CCN(c3cccc(Cl)c3Cl)CC2)CC1 [Cariprazine hydrochloride] . 6

Reference for the values: patent US20260263448A1
